- Test system: MDA-MB-468 breast
- test-details: NCI tumour cell line growth inhibition, 48 h; in the data active means GI50 below about 0.43 µM; inactive means the rest
Form entry, call: pick from active, inactive

Example entries begin here.
CCCc1n(Cc2ccc3ccccc3n2)cc[n+]1Cc1ccc2ccccc2c1 = active
Cc1nc2ccccc2c(/C=C/c2ccccc2)c1C(=O)/C=C/c1ccccc1 = inactive

Now let's try a different one.
Exam item: Tell me the recorded outcome of this test for O=C1CCC(N2C(=O)c3cccc(NCCOCCOCCNC(=O)c4cc5c(o4)C(=O)c4ccccc4C5=O)c3C2=O)C(=O)N1 (stereo not drawn) .
Marked response: inactive

###

- Test system: MDA-MB-468 breast
- test-details: NCI tumour cell line growth inhibition, 48 h
Reported GI50 values follow for various compounds

C[C@@]1(O)CCC[C@H]1n1c(=O)c(C(F)F)cc2cnc(NC3CCN(S(C)(=O)=O)CC3)nc21 = 1.61 µM
CCCCCC(=C/c1ccccc1)/C=N/N=C(N)N = 1.56 µM
COc1ccc(C(=O)c2cc(C)c(OC)c(C)c2)c(OC)c1N(C(=O)CCl)C(=O)CCl = 0.0296 µM

Exam item: Endpoint output: GI50 of NC(Cc1c[nH]c2cc(F)ccc12)C(=O)O (stereo not given) . Value?
Marked response: 1010 µM

Exam item: Endpoint output: GI50 of C#C[C@]1(O)CC[C@H]2[C@@H]3CC=C4c5sc(Nc6ccc(C)cn6)nc5CC[C@]4(C)[C@H]3CC[C@@]21C . Value?
Marked response: 1.07 µM
